Recorded values, source patent US20200399712A1.

- Tested on: HPV-16
- Test details: qPCR sensitivity against HPV-HNSCC tumor samples diluted among 10 ng normal human DNA
- Run parameters: Sample # 7
Metric: Threshold of tumor cell numbers for HPV-16 detection (tumor cells)
Enter your answer as a number in tumor cells; do not include the unit.

// below: answered molecules
# Molecule, Reading
measured = [
    ("E7: previously designed (historical) HPV-16 E7 primers and Taqman probe, SEQ ID NO: 10-12; part of CLIA test (nucleic acid, Taqman probe, labels not given here, part of CLIA test) DNA 1: CCGGACAGAGCCCATTACAA DNA 2: CGAATGTCTACGTGTGTGCTTTG DNA 3: CGCACAACCGAAGCGTAGAGTCACACT", 30.0),
    ("BR E1-4: HPV-16 E1 region primer/probe set, SEQ ID NO: 37-39 (nucleic acid, chemistry not given here) DNA 1: ATGCACAATTGGCAGACACTA DNA 2: ACAATCCTTTACAATTTTTGCCTGT DNA 3: TAATGCAAGTGCCTTTCTAAAAAGT", 30.0),
    ("E6: previously designed (historical) HPV-16 E6 primers and Taqman probe, SEQ ID NO: 7-9, positive control (nucleic acid, Taqman probe, labels not given here) DNA 1: TCAGGACCCACAGGAGCG DNA 2: CCTCACGTCGCAGTAACTGTTG DNA 3: CCCAGAAAGTTACCACAGTTATGCACAGAGCT", 30.0),
]

Returns the measured Threshold of tumor cell numbers for HPV-16 detection for the input molecule. Input: BR E1-6: HPV-16 E1 region primer/probe set, SEQ ID NO: 43-45 (nucleic acid, chemistry not given here) DNA 1: ATGCACAATTGGCAGACACTAA DNA 2: AATCCTTTACAATTTTTGCCTGTGA DNA 3: AGTAATGCAAGTGCCTTTCTAAAAAGTA
150.0
